All values here come from paper PMC11677527.

Experiment: Verification pharmacokinetic experiment in rats, SPC 60 g crude drug/kg by gavage, UFLC-MS/MS, DAS 2.0
Type: in vivo, rat
Details: rat, plasma, po, 2.62 mg/kg, statistical moment parameters, DAS 2.0; rats p.o. SPC 60 g crude drug/kg; Mean, 5 rats; read-out: AUC(0-∞)
Experimental: To validate the accuracy of PBPK models in predicting the pharmacokinetics of SPC constituents at different oral doses, the pharmacokinetic behavior of these four constituents from SPC in rats were analyzed by UFLC-MS/MS. The parameters were calculated using Drug and Statistics Software version 2.0, and then these validated values (Val.) were used to check the accuracy of the Calc. values and evaluated by FE. […]
PROPERTY LABEL: AUC(0-inf) (ng·h/mL)
Lab book: enter the figure in ng·h/mL, no units written.

The measured AUC(0-inf) associated with COc1cc([C@H]2c3cc(O)c(OC)cc3C[C@@H](CO)[C@@H]2CO)ccc1O reads 59.3

###

assay: Verification pharmacokinetic experiment in rats, SPC 60 g crude drug/kg by gavage, UFLC-MS/MS, DAS 2.0; type: in vivo, rat; conditions: rat, plasma, po, 0.22 mg/kg, statistical moment parameters, DAS 2.0; rats p.o. SPC 60 g crude drug/kg; Mean, 5 rats; read-out: Vz/F
PROPERTY LABEL: Vd/F
Reply with the number, then its unit.

The measured Vd/F associated with COc1ccc(-c2coc3c(OC)c(O)ccc3c2=O)cc1 reads 22.1 L/kg

###

assay: Verification pharmacokinetic experiment in rats, SPC 60 g crude drug/kg by gavage, UFLC-MS/MS, DAS 2.0; assay type: in vivo, rat; settings: rat, plasma, oral; time 0.5 h; rats p.o. SPC 60 g crude drug/kg; doses of 1-4: 0.124, 0.22, 1.4, 2.62 mg/kg; 5 rats
Some molecules, each annotated with its measured concentration at 0.5 h.
Lab book: enter the figure in ng/mL, no units written.

Record excerpt, results attached:
SMILES STR: O=c1c(-c2ccc(O)cc2)coc2cc(O[C@@H]3O[C@H](CO)[C@@H](O)[C@H](O)[C@H]3O)ccc12
UNIT OF MEASUREMENT: ng/mL
concentration at 0.5 h: 21
--
SMILES STR: COc1ccc(-c2coc3c(OC)c(O)ccc3c2=O)cc1
UNIT OF MEASUREMENT: ng/mL
concentration at 0.5 h: 12.3
--
SMILES STR: COc1cc([C@H]2c3cc(O)c(OC)cc3C[C@@H](CO)[C@@H]2CO)ccc1O
UNIT OF MEASUREMENT: ng/mL
concentration at 0.5 h: 41.7

Consider the record given below.
The measured concentration at 0.5 h associated with COc1cc(-c2coc3cc(O)ccc3c2=O)ccc1O reads 7.09

###

test: Verification pharmacokinetic experiment in rats, SPC 60 g crude drug/kg by gavage, UFLC-MS/MS, DAS 2.0; type: in vivo, rat; settings: rat, plasma, oral; time 0.083 h; rats p.o. SPC 60 g crude drug/kg; doses of 1-4: 0.124, 0.22, 1.4, 2.62 mg/kg; 5 rats
PROPERTY LABEL: concentration at 0.083 h (ng/mL)
Lab book: enter the figure in ng/mL, no units written.

COMPOUND: COc1ccc(-c2coc3c(OC)c(O)ccc3c2=O)cc1 [Constituent 2, 8-O-methylretusin]
PROPERTY LABEL: concentration at 0.083 h
EXPERIMENTAL RESULT: 9
//
COMPOUND: O=c1c(-c2ccc(O)cc2)coc2cc(O[C@@H]3O[C@H](CO)[C@@H](O)[C@H](O)[C@H]3O)ccc12 [Constituent 3, daidzin]
PROPERTY LABEL: concentration at 0.083 h
EXPERIMENTAL RESULT: 16.4
//
COMPOUND: COc1cc([C@H]2c3cc(O)c(OC)cc3C[C@@H](CO)[C@@H]2CO)ccc1O [Constituent 4, isolariciresinol]
PROPERTY LABEL: concentration at 0.083 h
EXPERIMENTAL RESULT: 15.4

The measured concentration at 0.083 h associated with COc1cc(-c2coc3cc(O)ccc3c2=O)ccc1O [Constituent 1, 3′-methoxydadizein] reads 2.98
